# credit: paper PMC5632533

Provide the recorded Urea for the entries that follow.
- Test system: ICR (CD-1) mice
- method description: In vivo toxicity in mice (SC, IN, IP routes)
- Parameters: unit not given here
- condition: serum; IP, 3 doses (1hr, 12hr, 24hr); RN7-IN10, RN7-IN8 20 mg/kg; RN7-IN9, RN7-IN6 10 mg/kg; day 7; mean±SD, 4 mice

Observe how each entry below is paired with its result.
FLGGLIKWWPWRR-NH2 [RN7-IN6, hybrid peptide of ranalexin (residues 1-7) and indolicidin (residues 8-13)] : 8.97±1.17
FLGGLIKWPWWPWRR-NH2 [RN7-IN8, hybrid peptide of ranalexin (residues 1-7) and indolicidin (residues 6-13)] : 10.34±2.36
FLGGLIKKWPWWPWRR-NH2 [RN7-IN9, hybrid peptide of ranalexin (residues 1-7) and indolicidin (residues 5-13)] : 10.56±5.2

Now for another entry.
Exercise: Recorded Urea of FLGGLIKWKWPWWPWRR-NH2 [RN7-IN10, hybrid peptide of ranalexin (residues 1-7) and indolicidin (residues 4-13)] , please.
Key: 9.6±2.11

====

- Tested on: ICR (CD-1) mice
- method description: In vivo toxicity in mice (SC, IN, IP routes)
- condition: IP, 3 doses (1hr, 12hr, 24hr); RN7-IN10, RN7-IN8 20 mg/kg; RN7-IN9, RN7-IN6 10 mg/kg; day 7; mean±SD, 4 mice
measured quantity: Erythrocytes, RBC

FLGGLIKKWPWWPWRR-NH2 [RN7-IN9, hybrid peptide of ranalexin (residues 1-7) and indolicidin (residues 5-13)] : 8.06±1.04 10^6/mm^3
FLGGLIKWWPWRR-NH2 [RN7-IN6, hybrid peptide of ranalexin (residues 1-7) and indolicidin (residues 8-13)] : 8.71±0.44 10^6/mm^3
FLGGLIKWPWWPWRR-NH2 [RN7-IN8, hybrid peptide of ranalexin (residues 1-7) and indolicidin (residues 6-13)] : 8.14±0.34 10^6/mm^3

Now for another entry.
Exercise: Recorded Erythrocytes, RBC of FLGGLIKWKWPWWPWRR-NH2 [RN7-IN10, hybrid peptide of ranalexin (residues 1-7) and indolicidin (residues 4-13)] , please.
Key: 9.16±0.92 10^6/mm^3

====

- Test system: ICR (CD-1) mice
- method description: In vivo toxicity in mice (SC, IN, IP routes)
- Parameters: unit not given here
- condition: serum; IP, 3 doses (1hr, 12hr, 24hr); RN7-IN10, RN7-IN8 20 mg/kg; RN7-IN9, RN7-IN6 10 mg/kg; day 7; mean±SD, 4 mice
- Method: In this study, 4-week old male, pathogen free ICR (CD-1) mice were purchased from InVivos (Lim Chu Kang, Singapore) and used to assess the in vivo toxicity and antibacterial efficacy of the novel peptides, as these animals are by far the most commonly used model for the study of pneumococcal disease ([Chiavolini, Pozzi & Ricci, 2008]). The mice were kept in ventilated polycarbonate cages (12 h light/dark cycle, 20 ± 2 °C and 55% relative humidity). […]
measured quantity: Creatinine
Answers are plain numbers.

Observe how each entry below is paired with its result.
FLGGLIKWPWWPWRR-NH2 [RN7-IN8, hybrid peptide of ranalexin (residues 1-7) and indolicidin (residues 6-13)] : 39.2
FLGGLIKWKWPWWPWRR-NH2 [RN7-IN10, hybrid peptide of ranalexin (residues 1-7) and indolicidin (residues 4-13)] : 38.1
FLGGLIKWWPWRR-NH2 [RN7-IN6, hybrid peptide of ranalexin (residues 1-7) and indolicidin (residues 8-13)] : 41.47

Now for another entry.
Exercise: Recorded Creatinine of FLGGLIKKWPWWPWRR-NH2 [RN7-IN9, hybrid peptide of ranalexin (residues 1-7) and indolicidin (residues 5-13)] , please.
Key: 37.3

====

- Test system: ICR (CD-1) mice
- method description: In vivo toxicity in mice (SC, IN, IP routes)
- Design: unit not given here
- condition: serum; IN, 3 doses (1hr, 12hr, 24hr); head doses: RN7-IN10, RN7-IN8 20 mg/kg; RN7-IN9, RN7-IN6 10 mg/kg; day 7; mean±SD, 4 mice
measured quantity: Urea
Answers are plain numbers.

FLGGLIKWPWWPWRR-NH2 [RN7-IN8, hybrid peptide of ranalexin (residues 1-7) and indolicidin (residues 6-13)] : 8.89
FLGGLIKKWPWWPWRR-NH2 [RN7-IN9, hybrid peptide of ranalexin (residues 1-7) and indolicidin (residues 5-13)] : 9.6
FLGGLIKWKWPWWPWRR-NH2 [RN7-IN10, hybrid peptide of ranalexin (residues 1-7) and indolicidin (residues 4-13)] : 9.3

Exercise: Recorded Urea of FLGGLIKWWPWRR-NH2 [RN7-IN6, hybrid peptide of ranalexin (residues 1-7) and indolicidin (residues 8-13)] , please.
Key: 10.14

====

Provide the recorded Mean corpuscular haemoglobin concentration, MCHC for the entries that follow.
- Test system: ICR (CD-1) mice
- method description: In vivo toxicity in mice (SC, IN, IP routes)
- condition: IN, 3 doses (1hr, 12hr, 24hr); head doses: RN7-IN10, RN7-IN8 20 mg/kg; RN7-IN9, RN7-IN6 10 mg/kg; day 7; mean±SD, 4 mice
Numbers only, in g/dL.

State recorded Mean corpuscular haemoglobin concentration, MCHC for all listed substances.
1. FLGGLIKWPWWPWRR-NH2 [RN7-IN8, hybrid peptide of ranalexin (residues 1-7) and indolicidin (residues 6-13)]
2. FLGGLIKWWPWRR-NH2 [RN7-IN6, hybrid peptide of ranalexin (residues 1-7) and indolicidin (residues 8-13)]

Key:
1: 32.22; 2: 31.7

State recorded Mean corpuscular haemoglobin concentration, MCHC for all listed substances.
1. FLGGLIKKWPWWPWRR-NH2 [RN7-IN9, hybrid peptide of ranalexin (residues 1-7) and indolicidin (residues 5-13)]
2. FLGGLIKWKWPWWPWRR-NH2 [RN7-IN10, hybrid peptide of ranalexin (residues 1-7) and indolicidin (residues 4-13)]

Key:
1. 31.85
2. 28.3
